B1: glmS ribozyme (parent)
chain: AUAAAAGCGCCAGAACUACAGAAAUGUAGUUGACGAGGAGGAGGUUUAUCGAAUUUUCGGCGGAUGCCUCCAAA

variants of: B1; assay: self-cleavage kobs at 640 uM GlcN6P; higher = faster cleavage; RNA array; settings: with glucosamine-6-phosphate
Fewer inactive variants are shown than the library holds.
Quantity measured: self-cleavage kobs at 640 uM GlcN6P

As a guide, the following entries are already answered.
Variant notation	Quantity measured	Test value
U46A U55G	self-cleavage kobs at 640 uM GlcN6P	0.000893 s⁻¹
A15U U31C U55G G63U	self-cleavage kobs at 640 uM GlcN6P	< 1e-05 s⁻¹
G38A A39U	self-cleavage kobs at 640 uM GlcN6P	< 1e-05 s⁻¹
A42C A52U A64G	self-cleavage kobs at 640 uM GlcN6P	< 1e-05 s⁻¹
G7U G9U	self-cleavage kobs at 640 uM GlcN6P	< 1e-05 s⁻¹

So what does the record say about self-cleavage kobs at 640 uM GlcN6P for G29C A48U U69G ?
5.01e-05 s⁻¹
